Origin of values: the supplement of paper PMC9170038

Each record here notes measured apparent KD of MS2 coat protein.
system: MS2 coat protein; experiment: apparent KD of MS2 coat protein; designed switch direction (-1 OFF switch, 1 ON switch): 1; higher = weaker reporter binding; conditions: input ligand: FMN 200 uM
Give your result in nM as a bare value.

Examples from the recorded data:
[[record]]
construct_sequence = "AAAAGAAACAUGUACCUGAGUACAUGAAAACAUGAGGAUCACCCAUGUAAUAAGUGGGUGUUUUGUCUUUGUCUUAU [JL pocket 34, mod 5] (Eterna round: R96, puzzle: Sensor for hsa-mir-208a)"
outcome_measure = "apparent KD of MS2 coat protein"
readout_units = "nM"
quantitative_readout = 50.8

[[record]]
construct_sequence = "GGCCUGUGUCAAGGAUAUGCUACCGUUUCGGUAGCAGAAGGUGAUCACAUGAGGAUCACCCAUGUUUACGCGAACACGCGCGCC (Eterna round: R96, puzzle: Same State NG 1)"
outcome_measure = "apparent KD of MS2 coat protein"
readout_units = "nM"
quantitative_readout = 193

[[record]]
construct_sequence = "UUUUUUAUCGUAGGAUAUAGGUUGAAUAAUAGACUAGAAGGACGUCACAUGAGGAUCACCCAUGUUUUUUAAGUGUCGAAGUGU [JR_SSNG1_Sub040] (Eterna round: R96, puzzle: Same State NG 1)"
outcome_measure = "apparent KD of MS2 coat protein"
readout_units = "nM"
quantitative_readout = 31.3

[[record]]
construct_sequence = "CUUUUUAGUGCAGGAUAUGAUCAACAUGAGGAUCACCCAUGUGGCGUUGUGAGUAGGGAGAGUGAUCAGAAGGGCGUCUCCUCG [SS-NG2-LRO10] (Eterna round: R96, puzzle: Same State NG 2)"
outcome_measure = "apparent KD of MS2 coat protein"
readout_units = "nM"
quantitative_readout = 40.7

[[record]]
construct_sequence = "UUCCCAUCGGGAGGAUAUGGUGCCUUAUUGGUGCUAGAAGGUCCAACAUGAGGAUCACCCAUGUGGGAGUGGUCUAAUGACCUC [SS NG10LRO06] (Eterna round: R96, puzzle: Same State NG 1)"
outcome_measure = "apparent KD of MS2 coat protein"
readout_units = "nM"
quantitative_readout = 338


[Q] Record UGGCUCAGACGAGGAUAUAUGCGAUCACAUGAGGAUCACCCAUGUCUCGAGCUUCGGCUCGAGGCAUAGAAGGUGUCUGAGCCA [SSNG2/4-C2] (Eterna round: R96, puzzle: Same State NG 2) : what is its apparent KD of MS2 coat protein with MS2 coat protein?
[A] 40.9

[Q] Okay, and GAGAGGAUAUGGAGAGGAUCACCCUCUAGAAGGCUCGAAGGAGAGGAUAUGGAGAGGAUCACCCUCUAGAAGGCUCACUUCUCU [pwkr ssNG3 DX 2xF5 +2xFMN.6] (Eterna round: R96, puzzle: Same State NG 3) ?
[A] 256

[Q] Okay, and GGUGGGUUGCUGCCGGCACAUGAGGAUCACCCAUGUUUUGGGAAGGAUAUGGUACCUGUUUGGUGCCAGAAGGUCCCGUUGGUG [salish99_SSNG3_r04_711] (Eterna round: R96, puzzle: Same State NG 3) ?
[A] 864

[Q] Okay, and AAAAUGGUAUGUUACAUGAGGAUCACCCAUGUACCGUAAUCUGAGGAUAUGGUGAUGUAGAAGAAUCAGAAGGCAGACAUUUAA [AK SSNG3-V2-24.2] (Eterna round: R96, puzzle: Same State NG 3) ?
[A] 19.2
